Each recorded value in this set is attributed to patent US10266526B2.

Biological target: SMYD3 (Homo sapiens (Human), UniProt Q9H7B4)
Sequence (Q9H7B4 whole entry): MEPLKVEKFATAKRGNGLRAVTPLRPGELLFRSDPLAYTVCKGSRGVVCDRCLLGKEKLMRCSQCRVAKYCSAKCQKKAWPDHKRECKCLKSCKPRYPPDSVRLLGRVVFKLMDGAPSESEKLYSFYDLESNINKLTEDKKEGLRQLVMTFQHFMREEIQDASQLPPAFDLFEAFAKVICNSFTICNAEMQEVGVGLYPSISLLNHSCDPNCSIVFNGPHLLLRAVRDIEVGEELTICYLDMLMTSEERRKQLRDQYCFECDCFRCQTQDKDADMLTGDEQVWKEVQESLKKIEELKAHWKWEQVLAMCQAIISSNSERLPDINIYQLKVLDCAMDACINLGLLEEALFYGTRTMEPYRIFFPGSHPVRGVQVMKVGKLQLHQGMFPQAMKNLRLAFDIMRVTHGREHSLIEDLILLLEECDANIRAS
Test: SMYD3 biochemical assay (SMYD3 enzyme assay on MEKK2 protein substrate, 3H-SAM scintillation proximity assay)
Settings: read-out: SMYD3 Biochem IC50 (μM)*
Structures can show the parent of a compound that is named as a salt.
measureName: IC50 (µM)

[Q] For Cc1cc2[nH]c(C(=O)Nc3ccc(CN)cc3)cc2o1 [compound 81] , what is its reported IC50?
[A] 25.9

[Q] IC50 for CCCCC1CC1C(=O)N[C@H]1CC[C@H](N)CC1 (stereo partly drawn) [compound 53] ?
[A] 122

[Q] Quick one: IC50 of CC(NC(=O)c1ccc2c(c1)CC(=O)N2)C1CCN(C(=O)[C@H](C)N)CC1 (stereo partly drawn) [Cpd. No. 86, Hydrochloride] ?
[A] 1.43

a. CCc1ccnc(C(=O)N[C@H]2CC[C@H](N)CC2)c1 [compound 38]
b. CC(CC(=O)NC(c1ccccc1)C1CCNCC1)C1CC1 (stereo not drawn) [compound 63]
[Q] Recorded IC50 values differ for a and b ; which one is higher? // caller expects the label of the chosen entry
[A] b

a. CC(=O)c1c[nH]c(C(=O)Nc2ccc(CN)cc2)c1 [compound 66]
b. CCOC(=O)CCCC(=O)N[C@H]1CC[C@H](N)CC1 [compound 108]
[Q] Which of these two has the smaller recorded IC50: a or b ? Indicate which entry you chose by stating its label.
[A] a
(a: 60.9 µM, b: 92.2 µM)

1. Cc1cc2[nH]c(C(=O)NC(c3ccccc3)C3CCNCC3)cc2o1 (stereo not drawn) [compound 110]
2. CCc1cncc(C(=O)N[C@H]2CC[C@H](N)CC2)c1 [compound 22]
3. COc1cc(C(=O)NC(C)C2CCN(C(=O)[C@H](C)N)CC2)cc2c1OCC(=O)N2 (stereo partly drawn) [compound 98]
4. CCc1cccc(C(=O)N[C@H]2CC[C@H](N)CC2)c1 [compound 21]
5. CCOC(=O)C(NC(=O)c1ccc2c(c1)CC(=O)N2)C1CCN(C(=O)[C@H](C)N)CC1 (stereo partly drawn) [compound 104]
[Q] Hey, quick one: sort these by IC50, largest value first please. Form entry: labels listed in requested order.
[A] 3, 1, 4, 2, 5
